Values were extracted from paper PMC5078989.

- System: panel of cancer cell lines
- Method summary: Cell viability (CellTiter-Glo) dose-response across cancer cell line panel;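 further: after 72 h compound incubation with CellTiter-Glo ATP readout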
- Format: cell-based, human
- Experimental setup: Homo sapiens, A673, A-673
Value kind: pEC50
# reply with the number alone; pEC50 is -log10 of concentration in mol/L

Some solved cases for reference:
Compound smiles: COCc1ccccc1NCc1ccc([C@H]2[C@@H](O)CCCc3cncn32)c(-c2ccccc2Cl)c1
pEC50: 6.37
//
Compound smiles: NS(=O)(=O)OC[C@@H]1C[C@@H](n2ccc3c(N[C@H]4CCc5ccccc54)ncnc32)C[C@@H]1O
pEC50: 7.05

Please look at the following compound next.
Just so you know, measured pEC50 for `CC(C)C[C@H](NC(=O)[C@H](Cc1ccccc1)NC(=O)c1cnccn1)B(O)O` came out at 8.23

---

- Tested on: panel of cancer cell lines
- Method summary: Cell viability (CellTiter-Glo) dose-response across cancer cell line panel;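 further: after 72 h compound incubation with CellTiter-Glo ATP readout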
- Type: cell-based, human
- Experimental setup: Homo sapiens, SK-LMS-1, SK-LMS-1
Value kind: pEC50
# reply with the number alone; pEC50 is -log10 of concentration in mol/L

Form field pEC50 for item CC(C)C[C@H](NC(=O)[C@H](Cc1ccccc1)NC(=O)c1cnccn1)B(O)O [Bortezomib] on panel of cancer cell lines: 8.08

---

- System: panel of cancer cell lines
- Method summary: Cell viability (CellTiter-Glo) dose-response across cancer cell line panel;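 further: after 72 h compound incubation with CellTiter-Glo ATP readout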
- Type: cell-based, human
- Experimental setup: Homo sapiens, COV644
Reported EC50 values for the following compounds.
Param answer (str): number followed by unit.

Compound smiles: NS(=O)(=O)OC[C@@H]1C[C@@H](n2ccc3c(N[C@H]4CCc5ccccc54)ncnc32)C[C@@H]1O
EC50: 23600 nM

Compound smiles: CC(C)C[C@H](NC(=O)[C@H](Cc1ccccc1)NC(=O)c1cnccn1)B(O)O
EC50: 6.9 nM

Please look at the following compound next.
Just so you know, measured EC50 for `COCc1ccccc1NCc1ccc([C@H]2[C@@H](O)CCCc3cncn32)c(-c2ccccc2Cl)c1` came out at 1040 nM

---

- System: panel of cancer cell lines
- Method summary: Cell viability (CellTiter-Glo) dose-response across cancer cell line panel;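 further: after 72 h compound incubation with CellTiter-Glo ATP readout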
- Assay type: cell-based, human
- Experimental setup: Homo sapiens, SF-295, cell line SF-295
Value kind: EC50 (nM)
The answer is to be given in nM; state only the numeric part.

Just so you know, measured EC50 for CC(C)C[C@H](NC(=O)[C@H](Cc1ccccc1)NC(=O)c1cnccn1)B(O)O [Bortezomib] came out at 11.8

---

- Tested on: panel of cancer cell lines
- Method summary: Cell viability (CellTiter-Glo) dose-response across cancer cell line panel;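 further: after 72 h compound incubation with CellTiter-Glo ATP readout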
- Assay type: cell-based, human
- Experimental setup: Homo sapiens, KYSE-510, cell line KYSE-510
Value kind: pEC50
# reply with the number alone; pEC50 is -log10 of concentration in mol/L

Just so you know, measured pEC50 for CC(C)C[C@H](NC(=O)[C@H](Cc1ccccc1)NC(=O)c1cnccn1)B(O)O [Bortezomib] came out at 7.92

---

Reported pEC50 values for the following molecules.
- Test system: panel of cancer cell lines
- Method summary: Cell viability (CellTiter-Glo) dose-response across cancer cell line panel;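 further: after 72 h compound incubation with CellTiter-Glo ATP readout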
- Assay type: cell-based, human
- Experimental setup: Homo sapiens, HLC-1
# reply with the number alone; pEC50 is -log10 of concentration in mol/L

Some solved cases for reference:
Compound smiles: COCc1ccccc1NCc1ccc([C@H]2[C@@H](O)CCCc3cncn32)c(-c2ccccc2Cl)c1
Value: 5.48

Compound smiles: NS(=O)(=O)OC[C@@H]1C[C@@H](n2ccc3c(N[C@H]4CCc5ccccc54)ncnc32)C[C@@H]1O
Value: 6.01

Form field pEC50 for item `CC(C)C[C@H](NC(=O)[C@H](Cc1ccccc1)NC(=O)c1cnccn1)B(O)O` on panel of cancer cell lines: 7.96
